biological target: T1, human PD-L1 (Programmed Death Ligand-1), protein used in Biacore and ELISA (human, UniProt Q9NZQ7 19-239); test: SPR (Biacore), human PD-L1
T1 construct: also called hPD-L1; CD274
T1 sequence (Q9NZQ7 19-239 limits assumed): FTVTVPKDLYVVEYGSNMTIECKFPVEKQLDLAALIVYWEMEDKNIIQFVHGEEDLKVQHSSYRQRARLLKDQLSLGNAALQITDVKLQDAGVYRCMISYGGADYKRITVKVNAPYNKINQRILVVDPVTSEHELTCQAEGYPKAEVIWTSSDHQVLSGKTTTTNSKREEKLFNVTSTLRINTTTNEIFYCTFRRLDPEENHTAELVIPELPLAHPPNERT

{"columns": ["binder", "koff [s⁻¹]"],
 "data": [
  ["ADX_5417_E01 (designed binder) MGVSDVPRDLEVVAATPTSLLISWRAQLSPSFYYRITYGETGGNSPVQEFTVPNDVMTATISGLKPGVDYTITVYAVTTHGVYFYSPISINYRTPCHHHHHH", 0.00026],
  ["ATI-966 (designed binder, 10Fn3 Adnectin) MGVSDVPRDLEVVAATPTSLLISWHRFSSIMAYYRITYGETGGNSPVQEFTVAGSVNTATISGLKPGVDYTITVYAVTIHNVSFPISINYRTEIDKPSQHHHHHH", "6.9e-05"],
  ["ATI-965 (designed binder, 10Fn3 Adnectin) MGVSDVPRDLEVVAATPTSLLISWTAYDSVDKYYRITYGETGGNSPVQEFTVGPRHHTATISGLKPGVDYTITVYAVYHTEPGYHAHMPISINYRTEIDKPSQHHHHHH", 0.00033],
  ["ADX_5322_A02 (designed binder) MGVSDVPRDLEVVAATPTSLLISWSYDGPIDRYYRITYGETGGNSPVQEFTVPPDQKTATISGLKPGVDYTITVYAVRLEEAHYNREFPISINYRTPCHHHHHH", 0.00057]
]}
